Test system: P388 leukemia ip, CD2F1 mice, survival T/C
Assay: NCI In Vivo Anticancer Drug Screen. Data for tumor model P388 Leukemia (intraperitoneal) in CD2F1 (CDF1) mice
Conditions: endpoint: median survival time; dose: 100.0 mg/kg/injection; schedule: Q01DX009 (ip); vehicle: Klucel (hydroxypropylcellulose) (HPC); higher = longer survival
Toxic doses and inconclusive results are not listed.
measurement_type: T/C

- molecule: "CN(C)CCOC1=Nc2ccccc2O/C1=C/c1ccccc1"
  measurement_type: "T/C"
  result_value: "111 % of control"
- molecule: "COC(=O)C12CC=CCC1(C(=O)OC)CC=CC2 (stereo not drawn)"
  measurement_type: "T/C"
  result_value: "100 % of control"
- molecule: "O=C1CC2(CCCC2)CC(=O)N1c1ccc(-c2ccc(N3C(=O)CC4(CCCC4)CC3=O)cc2)cc1"
  measurement_type: "T/C"
  result_value: "94 % of control"

Task item: Any idea what its T/C is? The molecule is "O=C1C(=O)c2c(ccc3ccccc23)-c2ccccc21"
Reply: 100 % of control

Task item: What would you report for OC(c1ccncc1)(c1ccc(Cl)cc1)c1cccs1 (stereo not drawn) ?
Reply: 98 % of control

Task item: What would you report for N#CC1=C(N)Oc2c(c(-c3ccccc3)nn2-c2ccccc2)C1c1ccccc1 (stereo not drawn) ?
Reply: 105 % of control

Task item: What would you report for "CCOc1c/c(=N\N=C(/C)c2ccc(Cl)cc2)n(C)c(=O)n1C" ?
Reply: 96 % of control

Task item: What would you report for "CCc1cc(Cc2cc(CC)cc(C(C)(C)C)c2O)c(O)c(C(C)(C)C)c1" ?
Reply: 107 % of control

Task item: What would you report for "CCOc1ccc(N=Nc2ccc(N)cc2N)cc1" ?
Reply: 118 % of control

====

Test system: P388 leukemia ip, CD2F1 mice, survival T/C
Assay: NCI In Vivo Anticancer Drug Screen. Data for tumor model P388 Leukemia (intraperitoneal) in CD2F1 (CDF1) mice
Details: endpoint: median survival time; dose: 100.0 mg/kg/injection; schedule: Q01DX009 (ip); vehicle: saline with Tween-80; higher = longer survival
Toxic doses and inconclusive results are not listed.
measurement_type: T/C

- compound: "CCCCCCCCCCCCCOCC(=O)OC"
  T/C: "104 % of control"
- compound: "S=C(c1c(Cl)cccc1Cl)N1CN2CCCN(C2)C1"
  T/C: "98 % of control"
- compound: "O=C(O)CCC(=O)Nc1ccccc1C(=O)O"
  T/C: "110 % of control"
- compound: "CCCc1c(C(=O)O)c(-c2cccc3ccccc23)c(CCC)c2c1-c1cccc3cccc-2c13"
  T/C: "102 % of control"
- compound: "S=c1[nH]nc(NC2CCCCC2)s1"
  T/C: "90 % of control"
- compound: "COc1cc(CC#N)c(S(=O)O)cc1OC"
  T/C: "109 % of control"

Turning to the following compound.
Task item: Any idea what its T/C is? The compound is "O=[N+]([O-])c1ccc2c(Cl)c3ccccc3nc2c1"
Reply: 103 % of control

====

Collected T/C values appear next to each entry.
Tested on: P388 leukemia ip, CD2F1 mice, survival T/C
Assay: NCI In Vivo Anticancer Drug Screen. Data for tumor model P388 Leukemia (intraperitoneal) in CD2F1 (CDF1) mice
Conditions: endpoint: median survival time; dose: 200.0 mg/kg/injection; schedule: Q01DX009 (ip); vehicle: saline with Tween-80; higher = longer survival
Toxic doses and inconclusive results are not listed.

Task item: Any idea what its T/C is? The compound is "CC(C)=C[Si](C)(C)C"
Reply: 103 % of control

Task item: What would you report for "O=c1cc[nH]cc1[N+](=O)[O-]" ?
Reply: 104 % of control

Task item: What would you report for "Clc1nc(Cl)nc(N2CCCc3ccccc32)n1" ?
Reply: 93 % of control

Task item: What would you report for "CO/C=C1\SC(=S)N(c2ccc(NC(C)=O)cc2)C1=O" ?
Reply: 96 % of control

Task item: What would you report for "CC(=O)[C@H]1CC[C@H]2[C@@H]3C[C@H](F)C4=CC(=O)CC[C@]4(C)[C@H]3C(=O)C[C@]12C" ?
Reply: 100 % of control

Task item: What would you report for O=c1[nH]c2ccccc2n1C1CCN(CC(O)C2COc3ccccc3O2)CC1 (stereo not given) ?
Reply: 103 % of control

Task item: What would you report for "CCOC(=O)c1ccc(NC(=O)Nc2ncccc2C)cc1" ?
Reply: 89 % of control

Task item: What would you report for O=S(=O)(NC(Cc1nc2ccccc2[nH]1)c1nc2ccccc2[nH]1)c1ccccc1 (stereo not given) ?
Reply: 93 % of control

Task item: What would you report for "CCCCCCC(=O)/C=C/c1ccccc1OC(=O)c1ccc([N+](=O)[O-])cc1" ?
Reply: 96 % of control

Task item: What would you report for "CC(C)(N)C(=O)O" ?
Reply: 100 % of control

Task item: What would you report for CCC12OCCN1CC(C)O2 (stereo not given) ?
Reply: 113 % of control

Task item: What would you report for "CN(C)c1ccc(-c2nc(=O)[nH]c(=O)s2)cc1" ?
Reply: 98 % of control

Task item: What would you report for "N[C@H](Cc1c[nH]c2ccccc12)C(=O)O" ?
Reply: 103 % of control

Task item: What would you report for "Cc1ccc(-c2cssc2=S)cc1" ?
Reply: 90 % of control

Task item: What would you report for COC1/C=C/OC2(C)Oc3c(C)c(O)c4c(O)c(c(/C=N/N5CCCN(C)CC5)c(O)c4c3C2=O)NC(=O)/C(C)=C\C=C\C(C)C(O)C(C)C(O)C(C)C(OC(C)=O)C1C (stereo not given) ?
Reply: 102 % of control

Task item: What would you report for "S=C1NC2(CCCCCC2)NN1c1ccccc1" ?
Reply: 91 % of control
